Would you kindly list hGIPR Potency, 1% HSA, EC50 [pM] for each of these binders?
Molecular target: T1, human GIP receptor (human, UniProt P48546 22-466)
T1 sequence (looked up): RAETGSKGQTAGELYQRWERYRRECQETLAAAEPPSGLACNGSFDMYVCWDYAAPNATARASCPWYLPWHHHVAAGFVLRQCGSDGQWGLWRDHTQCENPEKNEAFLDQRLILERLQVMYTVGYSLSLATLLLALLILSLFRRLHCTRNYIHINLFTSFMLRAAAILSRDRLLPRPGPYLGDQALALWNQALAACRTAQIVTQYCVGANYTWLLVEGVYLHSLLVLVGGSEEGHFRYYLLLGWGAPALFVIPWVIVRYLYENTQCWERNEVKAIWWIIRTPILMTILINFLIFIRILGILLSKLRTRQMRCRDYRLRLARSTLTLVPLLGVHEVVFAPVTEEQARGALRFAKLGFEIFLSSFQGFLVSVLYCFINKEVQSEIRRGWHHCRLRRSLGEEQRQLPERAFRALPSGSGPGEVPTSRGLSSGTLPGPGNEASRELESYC
Assay: cell-based or functional assay
Numbered stars: 1 amine (or outer) side, 2 acyl side, 3 side chain; on linkers, the order of the positions; unused ones are H or OH. Square brackets hold non-standard residues; d marks the D form. Side chains are listed from the residue outwards. * marks the point of attachment. C18 diacid = O=C(O)CCCCCCCCCCCCCCCCC(=O)*; γGlu = O=C(O)[C@H](CCC(=O)[*:2])N[*:1]; Chem. 28 = not defined here; AEEA = NCCOCCOCC(=O)O; Aib = CC(C)(N)C(=O)O
Write it as a number; the unit pM goes unstated.

Ask | What hGIPR Potency, 1% HSA, EC50 [pM] value was documented for this binder, Compound 36 (reading uncertain) peptide: H[Aib]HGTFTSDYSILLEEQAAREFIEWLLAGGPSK(Chem. 28)GEASHLSTAQTARLSAELHELATLPRTETGSGSP-NH2 ?
Reply | 226

Ask | What hGIPR Potency, 1% HSA, EC50 [pM] value was documented for this binder, Compound 26 (reading uncertain) peptide: Y[Aib]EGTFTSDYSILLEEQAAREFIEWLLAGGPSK(Chem. 28)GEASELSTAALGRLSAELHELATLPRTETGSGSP-NH2 ?
Reply | 558

Ask | What hGIPR Potency, 1% HSA, EC50 [pM] value was documented for this binder, Compound 86 (peptide) peptide: H[Aib]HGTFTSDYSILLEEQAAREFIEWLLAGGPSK([AEEA-AEEA-γGlu-C18 diacid])GAPPPSGGGASELSTAALGRLSAELHRLATLPRTETGSGSP-NH2 ?
Reply | 122

Ask | What hGIPR Potency, 1% HSA, EC50 [pM] value was documented for this binder, Compound 90 (peptide) peptide: H[Aib]HGTFTSDYSILLEEQAAREFIEWLLAGGPSSGEASHLSTAALGRLSAELHRLATLPK([AEEA-AEEA-γGlu-C18 diacid])TETGSGSP-NH2 ?
Reply | 32.5

Ask | What hGIPR Potency, 1% HSA, EC50 [pM] value was documented for this binder, Compound 108 (reading uncertain) peptide: H[Aib]HGTFTSDYSILLEEQAAREFIEWLLAGGPSSGALQAPGQAPLASHLSTAQTARLSAELHK(Chem. 28)LATLPRTETGSGSP-NH2 ?
Reply | 11.4

Ask | What hGIPR Potency, 1% HSA, EC50 [pM] value was documented for this binder, Compound 84 (peptide) peptide: H[Aib]HGTFTSDYSILLEEQAAREFIEWLLAGGPSSGEASHLSTAQTQRLSAELHRLATLPK([AEEA-AEEA-γGlu-C18 diacid])TETGSGSP-NH2 ?
Reply | 11.6

Ask | What hGIPR Potency, 1% HSA, EC50 [pM] value was documented for this binder, Compound 56 (reading uncertain) peptide: Y[Aib]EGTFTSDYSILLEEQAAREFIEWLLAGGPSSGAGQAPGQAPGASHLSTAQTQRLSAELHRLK(Chem. 28)TLPRTETGSGSP-NH2 ?
Reply | 8.48

Ask | What hGIPR Potency, 1% HSA, EC50 [pM] value was documented for this binder, Compound 75 (peptide) peptide: H[Aib]HGTFTSDYSILLEEQAAREFIEWLLAGGPSGGEASHLSTAQTQRLSAELHK([AEEA-AEEA-γGlu-C18 diacid])LATLPRTETGSGSP-NH2 ?
Reply | 11.9

Hello, the source for this data is patent US20260174875A1, in case you need it.
